Reference source: patent US20260001914A1

target: KRAS-G12D protein (Homo sapiens, UniProt P01116, G12D); test: SOS-mediated nucleotide exchange assay (BODIPY-GDP / Tb-streptavidin TR-FRET); type: biochemical
Sequence (P01116 1-188 isoform P01116-2 G12D): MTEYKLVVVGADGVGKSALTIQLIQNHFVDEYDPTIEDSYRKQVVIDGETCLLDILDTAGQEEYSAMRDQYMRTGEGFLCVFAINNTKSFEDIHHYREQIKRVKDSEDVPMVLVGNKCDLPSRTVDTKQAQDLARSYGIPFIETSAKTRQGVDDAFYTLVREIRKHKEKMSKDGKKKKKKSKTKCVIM
pEC50: −log10 of the molar value. *1 amine or outer side, *2 acyl side, *3 side chain or, on linkers, in order; H or OH if unused. Where a SMILES comes first, the peptide text is derived from it. Bridges are numbered along the chain shown (N, C = ends). [ ]: non-standard residue; d: D form. cBu(1-CO,cis-3-CH2NH) = O=C([C@H]1C[C@@H](CN[*:1])C1)[*:2]; NMeNva(5-imidazol-1-yl) = CN[C@@H](CCCn1ccnc1)C(=O)O; Phe(4-guanidino) = N=C(N)Nc1ccc(C[C@H](N)C(=O)O)cc1; Phe(3,4-Cl2) = N[C@@H](Cc1ccc(Cl)c(Cl)c1)C(=O)O; Phe(3-COOH) = N[C@@H](Cc1cccc(C(=O)O)c1)C(=O)O; Lys(N3) = [N-]=[N+]=NCCCC[C@H](N)C(=O)O; 1Nal = N[C@@H](Cc1cccc2ccccc12)C(=O)O; NHCH2CH2SCH2CO = O=C(CSCCN[*:1])[*:2]; Phe(2-F) = N[C@@H](Cc1ccccc1F)C(=O)O; NMe3Pal = CN[C@@H](Cc1cccnc1)C(=O)O; X1 = O=C(C12CC(CN[*:1])(C1)C2)[*:2]; X12 = CC(=O)NCCCN(CC(=O)[*:2])[*:1]; NMeF = CN[C@@H](Cc1ccccc1)C(=O)O; PhLac = O=C(O)[C@@H](O)Cc1ccccc1; 3Pal = N[C@@H](Cc1cccnc1)C(=O)O; Ahp(2) = CCCCC[C@H](N)C(=O)O; Cba = N[C@@H](CC1CCC1)C(=O)O; αMeC = C[C@](N)(CS)C(=O)O; NMeA = CN[C@@H](C)C(=O)O; Nle = CCCC[C@H](N)C(=O)O; Pra = C#CC[C@H](N)C(=O)O; AEEA = NCCOCCOCC(=O)O
Decide using pEC50: a value greater than or equal to 6 is rule met, a smaller one is rule not met.

Problem: Can CCCC[C@@H]1NC(=O)[C@H](CCCCN)NC(=O)[C@H](CCCNC(=N)N)NC(=O)[C@H](Cc2cccc3ccccc23)NC(=O)CSCCNC(=O)[C@H](Cc2ccccc2)N(C)C(=O)[C@H](CCCC)NC(=O)[C@H](Cc2cccc(C(=O)O)c2)NC1=O [compound 197] (cyclo([1Nal]RK[Nle][Phe(3-COOH)][Nle][NMeF][NHCH2CH2SCH2CO])) be said to have pEC50 at or above 6?
Result: rule not met

Problem: Tell me whether pEC50 is at least 6 here: CCCC[C@@H]1NC(=O)[C@H](Cc2cccnc2)NC(=O)[C@H](CCCn2ccnc2)N(C)C(=O)[C@H](Cc2ccccc2)N(C)C(=O)[C@H]2C[C@@H](CNC(=O)[C@H](Cc3cccnc3)N(C)C(=O)[C@H](CCCCN=[N+]=[N-])NC(=O)[C@H](Cc3ccccc3F)NC1=O)C2 [compound 157] (cyclo([3Pal][Nle][Phe(2-F)][Lys(N3)][NMe3Pal][cBu(1-CO,cis-3-CH2NH)][NMeF][NMeNva(5-imidazol-1-yl)]))
Result: rule not met

Problem: Quick check, pEC50 >= 6? CCCC[C@@H]1NC(=O)[C@H](Cc2ccc(Cl)c(Cl)c2)NC(=O)[C@H](C)N(C)C(=O)[C@H](Cc2ccccc2)OC(=O)C23CC(CNC(=O)[C@H](Cc4ccccc4)N(C)C(=O)[C@H](CCCC)NC(=O)[C@H](Cc4ccccc4F)NC1=O)(C2)C3 [compound 309] (cyclo([NMeA][Phe(3,4-Cl2)][Nle][Phe(2-F)][Nle][NMeF][X1][PhLac]))
Result: rule met

Problem: Entry C#CC[C@@H]1NC(=O)[C@H](CC2CCC2)NC(=O)[C@H](Cc2cccnc2)NC(=O)[C@H](CCCNC(=N)N)NC(=O)[C@H](Cc2ccccc2)NC(=O)CSC[C@@](C)(C(N)=O)NC(=O)[C@H](Cc2ccccc2)N(C)C(=O)[C@H](CCCC)NC1=O [compound 51] ({CH2CO}-FR[3Pal][Cba][Pra][Nle][NMeF][αMeC]-NH2; thioether N-8) : is its pEC50 no less than 6?
Result: rule met

Problem: Say whether CCCCC[C@@H]1NC(=O)[C@H](Cc2ccc(OC)cc2)NC(=O)[C@H](CC2CCC2)NC(=O)[C@H](Cc2ccc(NC(=N)N)cc2)NC(=O)CN(CCCNC(C)=O)C(=O)[C@H](Cc2ccccc2)NC(=O)CSC[C@@](C)(C(N)=O)NC(=O)[C@H](Cc2ccccc2)N(C)C1=O [compound 387] ({CH2CO}-F[X12][Phe(4-guanidino)][Cba]Y(Me)[Ahp(2)][NMeF][αMeC]-NH2; thioether N-8) shows pEC50 of 6 or more.
Result: rule met

Problem: I'd appreciate it if you could say whether CCCCC[C@@H]1NC(=O)[C@H](Cc2ccc(O)cc2)NC(=O)[C@H](CC(C)C)NC(=O)[C@H](Cc2ccc(O)cc2)NC(=O)[C@H](CCCNC(=N)N)NC(=O)[C@H](Cc2ccccc2)NC(=O)CSC[C@@H](C(=O)NCCOCCOCC(N)=O)NC(=O)[C@H](Cc2ccccc2)N(C)C1=O [compound 57, cyclo(F-R-Y-L-Y-Ahp-NMeF-C3-ClAc)] ({CH2CO}-FRYLY[Ahp(2)][NMeF]C[AEEA]-NH2; thioether N-8) has pEC50 at least equal to 6.
Result: rule met
